- TARGET: Tyrosinase (Agaricus bisporus, UniProt O42713)
- Sequence (O42713 whole entry): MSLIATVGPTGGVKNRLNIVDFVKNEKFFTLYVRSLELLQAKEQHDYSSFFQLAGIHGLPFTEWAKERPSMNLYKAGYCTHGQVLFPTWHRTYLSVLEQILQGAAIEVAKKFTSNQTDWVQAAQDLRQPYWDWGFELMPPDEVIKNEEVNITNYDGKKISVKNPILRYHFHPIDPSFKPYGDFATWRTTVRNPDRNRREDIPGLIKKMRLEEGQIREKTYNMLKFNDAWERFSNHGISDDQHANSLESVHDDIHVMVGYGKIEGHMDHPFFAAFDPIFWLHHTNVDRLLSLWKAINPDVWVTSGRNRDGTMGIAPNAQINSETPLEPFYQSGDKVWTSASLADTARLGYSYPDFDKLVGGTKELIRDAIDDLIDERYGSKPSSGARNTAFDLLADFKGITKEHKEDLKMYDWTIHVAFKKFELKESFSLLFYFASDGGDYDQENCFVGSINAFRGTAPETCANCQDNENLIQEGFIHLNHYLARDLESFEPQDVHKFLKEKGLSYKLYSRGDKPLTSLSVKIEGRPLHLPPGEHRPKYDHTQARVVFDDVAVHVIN
TEST READOUT: IC50 (µM)

(A) CCCCCCCCCCCCCCC(=O)OCCC [PROPYL PENTADECANOATE]
(B) CCCCCCCCCCCCCCC(=O)OCC(O)CO (configuration not stated) [2',3'-DIHYDROXY PROPYL PENTADECANOATE]
Between A and B , which one has the lower reported IC50 value? # answer = label of selected item
B
(B: 9.45 µM, A: 22.3 µM)
